tested target: T1, human NKp46 (human, UniProt O76036 22-304)
T1 construct: also called CD335; NCR1
T1 sequence (O76036 22-304 Q82K): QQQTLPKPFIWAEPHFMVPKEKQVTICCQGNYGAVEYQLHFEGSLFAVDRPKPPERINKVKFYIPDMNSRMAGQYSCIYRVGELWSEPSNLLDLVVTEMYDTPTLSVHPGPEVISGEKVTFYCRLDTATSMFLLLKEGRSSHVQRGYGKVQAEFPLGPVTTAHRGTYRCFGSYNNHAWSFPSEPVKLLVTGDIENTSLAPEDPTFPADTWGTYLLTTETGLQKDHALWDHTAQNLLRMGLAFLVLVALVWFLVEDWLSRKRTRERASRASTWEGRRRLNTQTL
test description: flow cytometry, HEK293F cells transfected with human NKp46
Output Y for records whose Kd is lower than 0.2 nM, N for records at or above 0.2 nM.

binder	class name
NKp46-5D7-Fc* (Fc fusion, VHH-Fc fusion with an IgG1 Fc lacking a hinge (Fc*); also called 5D7 VHH) QVTLRESGASLSLTCAASGRTFASAAMGWFRQAPGEEREFVAAISRSDDTYYADSVKGRFTISRDNAKNTVYLQMNSLKSEDTAVYYCAAVVPTYGNNIYVHSAAYNYWGQGTQVTVKPGGGGGPSVFLFPPKPKDTLMISRTPEVTCVVVDVSHEDPEVKFNWYVDGVEVHNAKTKPREEQYNSTYRVVSVLTVLHQDWLNGKEYKCKVSNKALPAPIEKTISKAKGQPREPQVYTLPPSRDELTKNQVSLTCLVKGFYPSDIAVEWESNGQPENNYKTTPPVLDSDGSFFLYSKLTVDKSRWQQGNVFSCSVMHEALHNHYTQKSLSLSPG	Y
NKp46-hz5D7v2-Fc* (Fc fusion, VHH-Fc fusion with an IgG1 Fc lacking a hinge (Fc*); also called NKp46-bz5D7v2-Fc*) EVQLVESGGGEVQPGGSLRLSCAASGRTFASAAMGWFRQAPGKEREFVAAISRSDDTYYAESVKGRFTISRDNAKNTLYLQMSSLRAEDTAVYYCAAVVPTYGNNIYVHSAAYNYWGQGTLVTVKPGGGGPSVFLFPPKPKDTLMISRTPEVTCVVVDVSHEDPEVKFNWYVDGVEVHNAKTKPREEQYNSTYRVVSVLTVLHQDWLNGKEYKCKVSNKALPAPIEKTISKAKGQPREPQVYTLPPSRDELTKNQVSLTCLVKGFYPSDIAVEWESNGQPENNYKTTPPVLDSDGSFFLYSKLTVDKSRWQQGNVFSCSVMHEALHNHYTQKSLSLSPG	N
NKp46-hz5D7v9-Fc* (Fc fusion, VHH-Fc fusion with an IgG1 Fc lacking a hinge (Fc*)) EVQLVESGGGEVQPGGSLRLSCAASGRTFASAAMGWFRQAPGKEREFVAAISRSVDDTYYADSVKGRFTISRDNAKNTVYLQMSSLRAEDTAVYYCAAVVPTYGNNIYVHSAAYNYWGQGTLVTVKPGGGGPSVFLFPPKPKDTLMISRTPEVTCVVVDVSHEDPEVKFNWYVDGVEVHNAKTKPREEQYNSTYRVVSVLTVLHQDWLNGKEYKCKVSNKALPAPIEKTISKAKGQPREPQVYTLPPSRDELTKNQVSLTCLVKGFYPSDIAVEWESNGQPENNYKTTPPVLDSDGSFFLYSKLTVDKSRWQQGNVFSCSVMHEALHNHYTQKSLSLSPG	N
NKp46-hz5D7v7-Fc* (Fc fusion, VHH-Fc fusion with an IgG1 Fc lacking a hinge (Fc*); also called NKp46-bz5D7v7-Fc*) EVQLVESGGGEVQPGGSLRLSCAASGRTFASAAMGWFRQAPGKEREFVAAISRSGDTYYADSVKGRFTISRDNAKNTVYLQMSSLRAEDTAVYYCAAVVPTYGNNIYVHSAAYNYWGQGTLVTVKPGGGGPSVFLFPPKPKDTLMISRTPEVTCVVVDVSHEDPEVKFNWYVDGVEVHNAKTKPREEQYNSTYRVVSVLTVLHQDWLNGKEYKCKVSNKALPAPIEKTISKAKGQPREPQVYTLPPSRDELTKNQVSLTCLVKGFYPSDIAVEWESNGQPENNYKTTPPVLDSDGSFFLYSKLTVDKSRWQQGNVFSCSVMHEALHNHYTQKSLSLSPG	N
